Please respond with reported CC50 for every item in the list.
procedure-text: cytotoxicity measurement (CC50), Table 13
Format: cell-based
condition-description: human, Huh7 cells

**Q:** Recorded CC50 for `Oc1ccc(-c2cnc3c(NCc4ccccc4Cl)nccn23)cc1` , please?
**A:** > 35 µM

**Q:** Lookup `CC(C)c1ccc(Nc2nccn3c(-c4ccc(O)cc4)cnc23)cc1`
**A:** < 35 µM

**Q:** Next: `COc1ccc(-c2cnc3c(NCc4cccnc4)nccn23)cc1OC`
**A:** > 35 µM

**Q:** Now try `COc1cc(-c2cnc3c(NCc4ccc(S(N)(=O)=O)cc4)nccn23)ccc1O` .
**A:** < 35 µM

**Q:** Queued: `COc1ccc(CNc2nccn3c(-c4ccc(O)cc4)cnc23)cc1`
**A:** > 35 µM

**Q:** Next record, please: `Oc1ccc(-c2cnc3c(NCc4ccncc4)nccn23)cc1`
**A:** > 35 µM

**Q:** Same lookup for `CC(=O)c1cccc(-c2cnc3c(NCCc4cccnc4)nccn23)c1` , please.
**A:** < 35 µM

**Q:** Ok, now `Oc1ccc(-c2cnc3c(NCc4ccccc4)nccn23)cc1`
**A:** < 35 µM

**Q:** Request: `Cc1nc2c(NCc3ccc(S(N)(=O)=O)cc3)nccn2c1-c1ccc(O)c(F)c1`
**A:** > 35 µM

**Q:** Next record, please: `NS(=O)(=O)c1ccc(CNc2nccn3c(-c4ccc(CO)o4)cnc23)cc1`
**A:** > 35 µM

**Q:** Similarly, `CS(=O)(=O)Nc1cccc(-c2cnc3c(NCc4cccnc4)nccn23)c1` ?
**A:** < 35 µM

**Q:** // next record `COc1ccc(-c2cnc3c(NCc4ccc(NS(C)(=O)=O)cc4)nccn23)cc1OC`
**A:** > 35 µM

**Q:** Ok, now `NS(=O)(=O)c1ccc(CNc2nccn3c(-c4ccc(O)c(F)c4)cnc23)cc1`
**A:** > 35 µM

**Q:** Can you handle `OCc1ccc(CNc2nccn3c(-c4ccc(O)cc4)cnc23)cc1` next?
**A:** < 35 µM

**Q:** # iterate: `NS(=O)(=O)c1ccc(CNc2nc(Br)cn3c(Br)cnc23)cc1`
**A:** > 35 µM

**Q:** // same read-out, input: `COc1ccc(-c2cnc3c(NCc4ccc(Cl)cc4)nccn23)cc1OC`
**A:** < 35 µM

**Q:** Next molecule up: `NS(=O)(=O)c1ccc(CNc2nccn3c(-c4ccc(O)c([N+](=O)[O-])c4)cnc23)cc1`
**A:** > 35 µM

**Q:** Please do the same for `Oc1ccc(-c2cnc3c(NCc4ccc(Cl)cc4)nccn23)cc1` as well.
**A:** < 35 µM

----------
Kindly state CC50 for each of the entries shown.
procedure-text: cytotoxicity measurement (CC50), Table 13
Format: cell-based
condition-description: human, Huh7 cells

**Q:** Find the recorded CC50 belonging to `Cc1cc(-c2cnc3c(NCc4ccc(S(N)(=O)=O)cc4)nccn23)ccc1O` and report it.
**A:** > 35 µM

**Q:** Also `NS(=O)(=O)c1ccc(CNc2nccn3c(-c4ccc(CO)s4)cnc23)cc1` ?
**A:** > 35 µM

**Q:** What about `CNS(=O)(=O)c1ccc(CNc2nccn3c(-c4ccc(OC)cc4)cnc23)cc1` ?
**A:** > 35 µM

**Q:** Then what about the compound `Oc1cccc(-c2cnc3c(NCc4ccncc4)nccn23)c1` ?
**A:** > 35 µM

**Q:** // repeat for `Oc1cccc(-c2cnc3c(NCCc4cccnc4)nccn23)c1` and report
**A:** < 35 µM

**Q:** Continue with `CC(=O)c1cccc(-c2cnc3c(NCc4ccc(S(N)(=O)=O)cc4)nccn23)c1`
**A:** > 35 µM

**Q:** // query: `COc1ccc2cc(-c3cnc4c(NCc5ccc(S(N)(=O)=O)cc5)nccn34)ccc2c1`
**A:** < 35 µM

**Q:** Follow-up item: `Cc1cccc(CNc2nccn3c(-c4ccc(O)cc4)cnc23)c1`
**A:** < 35 µM

**Q:** Entry `Oc1ccc(-c2cnc3c(NCc4cccs4)nccn23)cc1` please
**A:** < 35 µM

**Q:** Field entry: `Oc1ccc(-c2cnc3c(NCc4ccc(C(F)(F)F)cc4)nccn23)cc1`
**A:** < 35 µM

**Q:** Then what about the compound `CCNS(=O)(=O)c1ccc(CNc2nccn3c(-c4ccc(O)cc4)cnc23)cc1` ?
**A:** > 35 µM

**Q:** Okay, and `NS(=O)(=O)c1ccc(CNc2nccn3c(-c4ccc(O)cc4F)cnc23)cc1` ?
**A:** > 35 µM

**Q:** Again, but for `NS(=O)(=O)c1ccc(CNc2nccn3c(-c4ccc(F)c(Cl)c4)cnc23)cc1`
**A:** > 35 µM

**Q:** Same lookup for `OCc1ccc(-c2cnc3c(NCc4ccc(F)cc4)nccn23)cc1` , please.
**A:** < 35 µM

**Q:** Moving on to the next compound: `NS(=O)(=O)c1ccc(CNc2nccn3c(-c4cccc(O)c4)cnc23)cc1`
**A:** < 35 µM

**Q:** Check `COc1ccc(-c2cnc3c(NCCNC(C)=O)nccn23)cc1OC` too.
**A:** > 35 µM

**Q:** Item: `Cc1cn2c(-c3ccc(O)cc3)cnc2c(NCc2ccc(S(N)(=O)=O)cc2)n1`
**A:** < 35 µM

**Q:** Then what about the compound `CS(=O)(=O)Nc1cccc(-c2cnc3c(NCc4ccc(S(N)(=O)=O)cc4)nccn23)c1` ?
**A:** < 35 µM

**Q:** Entry to check: `COc1ccc(-c2cnc3c(NCc4ccccc4)nccn23)cc1OC`
**A:** > 35 µM

**Q:** // next record `NS(=O)(=O)c1ccc(CNc2nccn3c(-c4ccc(O)cc4)cnc23)cc1`
**A:** > 35 µM

**Q:** Likewise for `N#Cc1ccc(CNc2nccn3c(-c4ccc(O)cc4)cnc23)cc1` ?
**A:** < 35 µM

**Q:** Also need `CC(=O)Nc1ccc(-c2cnc3c(NCc4ccc(S(N)(=O)=O)cc4)nccn23)cc1` , thanks.
**A:** > 35 µM

**Q:** Then what about the compound `COc1ccc(-c2cnc3c(NCc4ccc(CO)cc4)nccn23)cc1OC` ?
**A:** > 35 µM

**Q:** Lookup `Oc1ccc(-c2cnc3c(NCc4cccnc4)nccn23)cc1`
**A:** < 35 µM

**Q:** How about `Oc1ccc(-c2cnc3c(Nc4ccccc4)nccn23)cc1` ?
**A:** > 35 µM

**Q:** Next record, please: `CC(=O)Nc1cccc(-c2cnc3c(NCc4ccc(S(N)(=O)=O)cc4)nccn23)c1`
**A:** < 35 µM

----------
procedure-text: in vitro
condition-description: African green monkey, Vero cells
metric: CC50

**Q:** Consider the compound shown here: `NS(=O)(=O)c1ccc(CNc2nccn3c(-c4ccc(O)cc4)cnc23)cc1` What is its recorded CC50?
**A:** > 35 µM

----------
Test system: Vero
procedure-text: cytotoxicity CC50 in Vero cells (Table 14)
condition-description: HSV-1
metric: CC50

**Q:** Record `NS(=O)(=O)c1ccc(CNc2nccn3c(-c4ccc(O)cc4)cnc23)cc1` : what is its CC50 with Vero?
**A:** > 35 µM

----------
System: Vero
procedure-text: cytotoxicity CC50 in Vero cells (Table 14)
condition-description: RSV column
metric: CC50

**Q:** Using the record for `NS(=O)(=O)c1ccc(CNc2nccn3c(-c4ccc(O)cc4)cnc23)cc1` , report its CC50.
**A:** > 35 µM

----------
Tested on: Huh7
procedure-text: cytotoxicity measurement (CC50), Table 13
Type: cell-based
metric: CC50

**Q:** I would be grateful if you could share the reported CC50 for NS(=O)(=O)c1cccc(CNc2nccn3c(-c4ccc(O)cc4)cnc23)c1 [Compound 95] .
**A:** < 35 µM

----------
Test system: HCV
procedure-text: antiviral profiling, HCV in Huh7 cells (Table 14)
Format: cell-based
condition-description: Hepatitis C virus, Huh-7
pEC50: −log10 of the molar value.
metric: pEC50

**Q:** Can you share its pEC50? I mean this compound: NS(=O)(=O)c1ccc(CNc2nccn3c(-c4ccc(O)cc4)cnc23)cc1 [Compound 1]
**A:** > 6.00

----------
System: RSV
procedure-text: antiviral profiling, RSV in Vero cells (Table 14)
Format: cell-based
condition-description: human respiratory syncytial virus
pEC50: −log10 of the molar value.
metric: pEC50

**Q:** Please give the measured pEC50 for this compound: `NS(=O)(=O)c1ccc(CNc2nccn3c(-c4ccc(O)cc4)cnc23)cc1`
**A:** < 4.70

----------
procedure-text: cytotoxicity measurement (CC50), Table 13
Format: cell-based
condition-description: human, Huh7 cells
Exercise: state measured CC50 for each of the compounds provided.

**Q:** Fill blank: measured CC50 of the compound NS(=O)(=O)c1ccc(CNc2nc(-c3ccc(O)cc3)cn3c(-c4ccc(O)cc4)cnc23)cc1 [Compound 114] is ____.
**A:** < 35 µM

**Q:** Follow-up entry: NS(=O)(=O)c1ccc(CNc2nccn3c(-c4ccc(F)cc4)cnc23)cc1 [Compound 11]
**A:** > 35 µM

**Q:** // same read-out, input: COc1ccccc1-c1cnc2c(NCc3ccc(S(N)(=O)=O)cc3)nccn12 [Compound 86]
**A:** < 35 µM

**Q:** Consider next the compound Cc1nc2c(NCc3ccc(S(N)(=O)=O)cc3)nccn2c1-c1ccc(O)cc1 [Compound 104] in the same way.
**A:** > 35 µM
